# System: alternative splicing of a specific gene (GFP/RFP reporter)
# measurementDescription: Compound screen with GFP/RFP alternative splicing reporter
# Format: cell-based
Structures can show the parent of a compound that is named as a salt.
measuredProperty: Number of cells
Answer using only a numeral; do not append any unit.

Which value of Number of cells has been reported for CN(C)CCC(c1ccc(Cl)cc1)c1ccccn1 (racemic) [Chlorpheniramine maleate] in the records?
3724

Which value of Number of cells has been reported for O=C1CCC(N2C(=O)c3ccccc3C2=O)C(=O)N1 (stereo not shown) [Thaldomide] in the records?
2622

Which value of Number of cells has been reported for Cc1cc2c(OCC(CNC(C)(C)C)OC(=O)c3ccccc3)cccc2[nH]1.O=C(O)CC(=O)O (stereo not shown) [Bopindolol malonate] in the records?
3625

Which value of Number of cells has been reported for CCCc1nc2c(C)cc(-c3nc4ccccc4n3C)cc2n1Cc1ccc(-c2ccccc2C(=O)O)cc1 (racemic) [Telmisartan] in the records?
3042

Which value of Number of cells has been reported for O=NN(CCCl)C(=O)NC1CCCCC1 (racemic) [Lomustine] in the records?
1241

Which value of Number of cells has been reported for COc1cc2c(cc1OC)-c1c/c(=N\c3c(C)cc(C)cc3C)n(C)c(=O)n1CC2 [Trequinsin] in the records?
3009

Further cases:
Which value of Number of cells has been reported for NC1CCN(c2nc3c(cc2F)c(=O)c(C(=O)O)cn3-c2ccc(F)cc2F)C1 (racemic) [Tosufloxacin] in the records?
2590

Which value of Number of cells has been reported for C[C@]12CCC(=O)C=C1CC[C@@H]1[C@@H]2[C@@H](O)C[C@@]2(C)[C@H]1CC[C@]2(O)C(=O)CO (racemic) [Hydrocortisone] in the records?
3105

Which value of Number of cells has been reported for Cc1ccc(-c2cc(C(F)(F)F)nn2-c2ccc(S(N)(=O)=O)cc2)cc1 (racemic) [Celecoxib] in the records?
3060

Which value of Number of cells has been reported for Cl.O=C(O)c1cn(-c2ccc(F)cc2)c2cc(N3CCNCC3)c(F)cc2c1=O [Satafloxacin HCl] in the records?
3105

---

# Tested on: alternative splicing of a specific gene (GFP/RFP reporter)
# measurementDescription: Compound screen with GFP/RFP alternative splicing reporter
# Type: cell-based
# conditionParameters: 50 ng/mL
Counter-ions that a name gives are not always drawn.
measuredProperty: Number of cells
Answer using only a numeral; do not append any unit.

Consider the worked cases shown below.
Which value of Number of cells has been reported for CCC(C)n1ncn(-c2ccc(N3CCN(c4ccc(OCC5COC(Cn6cncn6)(c6ccc(Cl)cc6Cl)O5)cc4)CC3)cc2)c1=O (racemic) [Itraconazole] in the records?
344

Which value of Number of cells has been reported for COc1cccc2c1C(=O)c1c(O)c3c(c(O)c1C2=O)C[C@@](O)(C(C)=O)C[C@@H]3O[C@H]1C[C@H](N)[C@H](O)[C@H](C)O1 [Daunorubicin HCl] in the records?
3

Further cases:
Which value of Number of cells has been reported for COc1c(C)c2c(c(O)c1C/C=C(\C)CCC(=O)O)C(=O)OC2 [Mycophenolic acid] in the records?
1367

Which value of Number of cells has been reported for O=c1[nH]c(=O)n([C@H]2C[C@H](O)[C@@H](CO)O2)cc1I (racemic) [Idoxuridine] in the records?
1924

Which value of Number of cells has been reported for Nc1ccn([C@@H]2O[C@H](CO)[C@@H](O)C2(F)F)c(=O)n1 (racemic) [Gemcitabine HCl] in the records?
156

Which value of Number of cells has been reported for CC(C)Cn1cnc2c(N)nc3ccccc3c21 (racemic) [Imiquimod] in the records?
1944

Which value of Number of cells has been reported for O=c1[nH]c(=O)n([C@H]2C[C@H](O)[C@@H](CO)O2)cc1F (racemic) [Floxuridine] in the records?
142

---

# Test system: alternative splicing of a specific gene (GFP/RFP reporter)
# measurementDescription: Compound screen with GFP/RFP alternative splicing reporter
# Assay type: cell-based
# conditionParameters: 50 ng/mL
measuredProperty: Number of cells
Answer using only a numeral; do not append any unit.

Which value of Number of cells has been reported for COc1cc(NS(=O)(=O)c2ccc(N)cc2)nc(OC)n1 (racemic) in the records?
3092

Which value of Number of cells has been reported for CC[C@@]1(O)C(=O)OCc2c1cc1n(c2=O)Cc2cc3c(CN(C)C)c(O)ccc3nc2-1 (racemic) in the records?
259

Which value of Number of cells has been reported for CN1CCCN=C1/C=C/c1cccs1 (racemic) [Pyrantel pamoate] in the records?
2985

Which value of Number of cells has been reported for CN1C(C(=O)Nc2ccccn2)=C(O)c2sccc2S1(=O)=O (racemic) in the records?
2916

Which value of Number of cells has been reported for C[C@H]1C[C@@H]2[C@H]([C@@H](O)C[C@@]3(C)[C@H]2CC[C@]3(O)C(=O)CO)[C@@]2(C)C=CC(=O)C=C12 (racemic) in the records?
3084

Further cases:
Which value of Number of cells has been reported for COc1cc([C@@H]2c3cc4c(cc3[C@@H](O[C@@H]3O[C@@H]5CO[C@@H](C)O[C@H]5[C@H](O)[C@H]3O)[C@H]3COC(=O)[C@H]23)OCO4)cc(OC)c1O [Etoposide] in the records?
055

Which value of Number of cells has been reported for CC(C)C[C@H](NC(=O)[C@H](Cc1ccccc1)NC(=O)c1cnccn1)B(O)O (racemic) in the records?
74

---

# Tested on: alternative splicing of a specific gene (GFP/RFP reporter)
# measurementDescription: Compound screen with GFP/RFP alternative splicing reporter
# Assay type: cell-based
Where a name gives a salt, the structure may show the parent alone.
Overview of recorded Number of cells for various compounds
Answer using only a numeral; do not append any unit.

Consider the worked cases shown below.
Which value of Number of cells has been reported for CCN(CC)CCCC(C)Nc1c2ccc(Cl)cc2nc2ccc(OC)cc12.Cl.Cl.O.O (stereo not drawn) [Quinacrine 2HCl dihydrate] in the records?
5

Which value of Number of cells has been reported for C[C@@](Cc1ccc(O)c(O)c1)(NN)C(=O)O [Carbidopa] in the records?
3470

Which value of Number of cells has been reported for Cl.Cl.O=C1c2c(O)ccc(O)c2C(=O)c2c(NCCNCCO)ccc(NCCNCCO)c21 [Mitoxantrone 2HCl] in the records?
31

Which value of Number of cells has been reported for Cc1cn([C@H]2C[C@H](N=[N+]=[N-])[C@@H](CO)O2)c(=O)[nH]c1=O (racemic) [3′-azido-3′-deoxythymidine] in the records?
2356

Which value of Number of cells has been reported for Cc1c(Cl)cccc1Nc1ccccc1C(=O)O (racemic) [Tolfenamic acid] in the records?
2697

Lab note: next compound to report on.
Which value of Number of cells has been reported for CCOC(=O)[C@H](CCc1ccccc1)N[C@@H](C)C(=O)N1Cc2ccccc2C[C@H]1C(=O)O (racemic) [Quinapril HCl] in the records?
3149

---

# Tested on: alternative splicing of a specific gene (GFP/RFP reporter)
# measurementDescription: Compound screen with GFP/RFP alternative splicing reporter
# Type: cell-based
# conditionParameters: 50 ng/mL
Overview of recorded Number of cells for various compounds
Answer using only a numeral; do not append any unit.

Which value of Number of cells has been reported for C[C@]12C=CC(=O)C=C1CC[C@@H]1[C@@H]2[C@@H](O)C[C@@]2(C)[C@H]1CC[C@]2(O)C(=O)CO (racemic) in the records?
2900

Which value of Number of cells has been reported for C[C@@H]1CN(c2c(F)c(N)c3c(=O)c(C(=O)O)cn(C4CC4)c3c2F)C[C@H](C)N1 in the records?
3029

Which value of Number of cells has been reported for C[C@H]1[C@H](OC(=O)CCC(=O)O)O[C@@H]2O[C@@]3(C)CC[C@H]4[C@H](C)CC[C@@H]1[C@@]24OO3 [Artesunate] in the records?
246

Which value of Number of cells has been reported for Nc1nc(Cl)nc2c1ncn2[C@@H]1O[C@H](CO)[C@@H](O)[C@@H]1F (racemic) in the records?
19

Which value of Number of cells has been reported for Cc1oncc1C(=O)Nc1ccc(C(F)(F)F)cc1 (racemic) [Leflunomide] in the records?
1963

Further cases:
Which value of Number of cells has been reported for COC(=O)Nc1nc2ccc(Sc3ccccc3)cc2[nH]1 (racemic) in the records?
278

Which value of Number of cells has been reported for CCCCC[C@H](O)/C=C/[C@H]1[C@H](O)CC(=O)[C@@H]1CCCCCCC(=O)O in the records?
3505

---

# Test system: alternative splicing of a specific gene (GFP/RFP reporter)
# measurementDescription: Compound screen with GFP/RFP alternative splicing reporter
# Assay type: cell-based
# conditionParameters: cell count after compound at final conc.; Ctrl number of cells 4303-5627
measuredProperty: Number of cells
Answer using only a numeral; do not append any unit.

Which value of Number of cells has been reported for CC(=O)OC[C@H]1O[C@@H]([S-])[C@H](OC(C)=O)[C@@H](OC(C)=O)[C@@H]1OC(C)=O.CCP(CC)CC.[Au+] [Auranofin] in the records?
1

Which value of Number of cells has been reported for CCC[S+]([O-])c1ccc2[nH]c(NC(=O)OC)nc2c1 (racemic) [Ricobendazole] in the records?
1381

Which value of Number of cells has been reported for COC(=O)Nc1nc2ccc([S+]([O-])c3ccccc3)cc2[nH]1 (racemic) [Oxfendazole] in the records?
1712

Which value of Number of cells has been reported for COc1ccc(C2CNC(=O)C2)cc1OC1CCCC1 (centres unmarked) [Rolipram] in the records?
2878

Which value of Number of cells has been reported for COc1cc(-c2ccc(=O)[nH]n2)ccc1OC(F)F [Zardaverine] in the records?
2744

Which value of Number of cells has been reported for C[C@@H]1[C@H](O)[C@@H](C)/C=C/C=C/CC/C=C/C=C/C=C/C=C/C(O[C@H]2O[C@H](C)[C@@H](O)[C@H](N)[C@@H]2O)CC2O[C@](O)(CC(O)C(O)CCC(O)CC(O)CC(O)CC(=O)O[C@H]1C)CC(O)C2C(=O)O (some centres unmarked) [Nystatin] in the records?
3293

Which value of Number of cells has been reported for COc1ccc2c(c1)[nH]c1c(C)nccc12 [Harmine] in the records?
537

Which value of Number of cells has been reported for CC[C@@]1(O)C(=O)OCc2c1cc1n(c2=O)Cc2cc3ccccc3nc2-1 [Camptothecin] in the records?
385

Which value of Number of cells has been reported for CC(N)C(O)c1ccccc1 (racemic) [Phenylpropanolamine] in the records?
2551

Which value of Number of cells has been reported for COC(=O)N/N=C/c1c[n+]([O-])c2ccccc2[n+]1[O-] (racemic) [Carbadox] in the records?
2293

Further cases:
Which value of Number of cells has been reported for COc1cc(CNC(=O)CCCC/C=C/C(C)C)ccc1O [Capsaicin] in the records?
1918

Which value of Number of cells has been reported for O=C(O)CCCc1ccc(N(CCCl)CCCl)cc1 (racemic) [Chlorambucil] in the records?
841
